# Measured on: 5-HT2C receptor (Homo sapiens, UniProt P28335)
# Construct: host or cells: HEK293
# Sequence (P28335 33-458): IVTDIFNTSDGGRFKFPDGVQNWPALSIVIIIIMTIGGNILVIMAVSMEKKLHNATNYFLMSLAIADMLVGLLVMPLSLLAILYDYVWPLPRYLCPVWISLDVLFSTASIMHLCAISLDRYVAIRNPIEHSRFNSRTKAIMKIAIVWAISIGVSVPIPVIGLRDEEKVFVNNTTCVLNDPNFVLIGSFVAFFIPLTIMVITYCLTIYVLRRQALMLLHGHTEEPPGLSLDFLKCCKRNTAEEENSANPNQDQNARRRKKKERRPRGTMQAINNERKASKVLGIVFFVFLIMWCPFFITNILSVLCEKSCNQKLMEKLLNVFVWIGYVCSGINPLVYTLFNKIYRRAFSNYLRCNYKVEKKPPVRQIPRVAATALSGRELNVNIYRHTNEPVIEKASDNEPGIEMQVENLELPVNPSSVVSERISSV
# Assay notes: FLIPR Ca2+ flux functional assay, 5-HT2C agonist activity
# Assay type: cell-based
# Description: Functional Assays 5-HT2A, 5-HT2B and 5-HT2C Receptors Activity at 5-HT2A, 5-HT2B and 5-HT2C receptors was determined using a FLIPR Ca2+ flux assay at WuXi AppTec Co. Ltd. (Hong Kong) Discovery Biology Unit according to their standard protocols. […] 10 μL of references and compounds were then transferred from the compound plate into the cell plate and the fluorescent signal was read.
For each record, write down the corresponding log10 EC50.
Please be aware that the numbers have been log10-transformed from EC50 in µM.

Qu. Read the entry CCCN(CCc1c[nH]c2cccc(O)c12)C(C)C [Compound P-141] and write its reported log10 EC50.
Ans. -0.38

Qu. Read the entry CN(C)CCc1c[nH]c2ccc(OC(F)(F)F)cc12 [Compound P-5] and write its reported log10 EC50.
Ans. -0.28

Qu. Read the entry CCC(C)N(C)CCc1c[nH]c2cccc(OC)c12 (centres unmarked) [Compound P-23] and write its reported log10 EC50.
Ans. -0.33

Qu. Read the entry CCN(CCc1c[nH]c2cccc(O)c12)CC(C)C [Compound P-140] and write its reported log10 EC50.
Ans. 0.00

Qu. Read the entry CN(C)CCc1c[nH]c2ccc(C(F)(F)F)cc12 [Compound P-15] and write its reported log10 EC50.
Ans. -1.05
